- targetOrTestSystem: group 3: OR1I1, OR51B6, OR6C1, ATG9A, RP1 and NR2E1 homologous peptide/HLA-A*02:01 complexes (mixed)
- testProtocol: SPR (BIAcore T200), crude scFv captured, mixed complexes flowed over
observationType: SPR binding level

binder	SPR binding level
05-AS170036 VL1VH1-56N98I (scFv) scFv: QSALTQPRSVSGSPGQSVTISCAGTSSDVGSENYVSWYQQHPGKAPKLMIYQVNKRASGVPDRFSGSKSGNTASLTISGLQAEDEADYYCASYRSSDINIVFGGGTKLTVLGGGGSGGGGSGGGGSEVQLVESGGGLVQPGGSLRLSCAASGFTFSSYAMSWVRQAPGKGLEWVSTINSGTNSPYYADSVKGRFTISRDNSKNTLYLQMNSLRAEDTAVYYCAKNFFDGSWFLGPPAMDYWGQGTLVTVSSHHHHHH	2 RU

Consider now this further binder.
**Query** Quick one: SPR binding level for 43-AS170036 VL1VH1-56Y98I108A (scFv) scFv: QSALTQPRSVSGSPGQSVTISCAGTSSDVGSENYVSWYQQHPGKAPKLMIYQVNKRASGVPDRFSGSKSGNTASLTISGLQAEDEADYYCASYRSSDINIVFGGGTKLTVLGGGGSGGGGSGGGGSEVQLVESGGGLVQPGGSLRLSCAASGFTFSSYAMSWVRQAPGKGLEWVSTINSGTYSPYYADSVKGRFTISRDNSKNTLYLQMNSLRAEDTAVYYCAKNFFDGSWFLAPPAMDYWGQGTLVTVSSHHHHHH ?
**Result** 17.3 RU
